FYI, the data here is from patent US20130012709A1.

Please respond with reported Viable C4-2 cells at 25 μM (% of control) for every item in the list.

# value of Viable C4-2 cells at 25 μM (% of control), C4-2 cells, item "COc1ccc(Br)c(C(=O)N2CCN(S(=O)(=O)c3cccc(C(F)(F)F)c3)CC2)c1" = 44 % of control

# value of Viable C4-2 cells at 25 μM (% of control), C4-2 cells, item "COc1ccc(Br)c(C(=O)N2CCN(S(=O)(=O)c3ccc(F)cc3F)CC2)c1" = 70 % of control

# value of Viable C4-2 cells at 25 μM (% of control), C4-2 cells, item "COc1ccc(Br)c(C(=O)N2CCN(S(=O)(=O)c3ccccc3C(F)(F)F)CC2)c1" = 73 % of control

# value of Viable C4-2 cells at 25 μM (% of control), C4-2 cells, item "COc1ccc(Br)c(C(=O)N2CCN(S(=O)(=O)c3ccc(OC(F)(F)F)cc3)CC2)c1" = 74 % of control

# value of Viable C4-2 cells at 25 μM (% of control), C4-2 cells, item "COc1ccc(Br)c(C(=O)N2CCN(S(=O)(=O)c3cccc(F)c3)CC2)c1" = 83 % of control

# value of Viable C4-2 cells at 25 μM (% of control), C4-2 cells, item "COc1ccc(Br)c(C(=O)N2CCN(S(=O)(=O)c3ccccc3F)CC2)c1" = 56 % of control
